Molecular target: URAT1/SLC22A12 (Homo sapiens, UniProt Q96S37)
Construct: full-length human URAT1 wild-type, EGFP-fused (pEGFP-C1)
Sequence (Q96S37 1-553): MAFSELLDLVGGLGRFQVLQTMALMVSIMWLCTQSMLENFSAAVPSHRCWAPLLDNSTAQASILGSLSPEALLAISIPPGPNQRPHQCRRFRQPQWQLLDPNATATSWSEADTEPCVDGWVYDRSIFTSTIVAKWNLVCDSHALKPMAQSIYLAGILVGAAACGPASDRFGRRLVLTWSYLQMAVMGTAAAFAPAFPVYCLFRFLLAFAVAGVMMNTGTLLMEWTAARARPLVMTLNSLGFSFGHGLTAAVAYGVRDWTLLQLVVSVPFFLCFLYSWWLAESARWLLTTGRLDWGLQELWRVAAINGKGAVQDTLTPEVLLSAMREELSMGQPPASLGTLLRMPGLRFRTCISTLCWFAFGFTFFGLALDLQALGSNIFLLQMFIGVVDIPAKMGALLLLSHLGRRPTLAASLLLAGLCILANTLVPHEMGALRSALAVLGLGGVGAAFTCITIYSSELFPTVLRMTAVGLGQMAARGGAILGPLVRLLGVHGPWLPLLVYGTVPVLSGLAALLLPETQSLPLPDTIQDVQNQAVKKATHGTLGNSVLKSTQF
Test: inhibition of [[…]-14C]-urate uptake in URAT1-expressing […] cells
Type: cell-based

Test Smiles: CCCCc1nc(Cl)c(CO)n1Cc1ccc(-c2ccccc2-c2nn[nH]n2)cc1
IC50, µM: 11.9

Reference source: paper PMC9019507
